# System: methicillin-sensitive Staphylococcus aureus (MSSA)
# experimentNotes: MIC, two-fold agar dilution (CLSI), clinical isolates
# Type: cell-based
# statedConditions: strain MSSA 15-4
Assignment: determine reported log10 of MIC (anti-bacterial activity) for the given compounds.
Recall that a logarithmic scale is used here: each number is log10 of MIC (anti-bacterial activity) in µg/mL.

Q: Specify the recorded log10 of MIC (anti-bacterial activity) for CCCC[C@H](CN(O)C=O)C(=O)N1CC2(CC2)C[C@H]1C(=O)Nc1ccncn1 [Example 16] , system: methicillin-sensitive Staphylococcus aureus (MSSA).
Result: -0.60

Q: Specify the recorded log10 of MIC (anti-bacterial activity) for Cc1cc(NC(=O)[C@@H]2CC3(CC3)CN2C(=O)[C@H](CC2CCCC2)CN(O)C=O)no1 [Example 39] , system: methicillin-sensitive Staphylococcus aureus (MSSA).
Result: 0.00

Q: Specify the recorded log10 of MIC (anti-bacterial activity) for CCCC[C@H](CN(O)C=O)C(=O)N1CC2(CC2)C[C@H]1c1nc2ccccc2n1CCN(C)C [Example 24] , system: methicillin-sensitive Staphylococcus aureus (MSSA).
Result: 0.90

Q: Specify the recorded log10 of MIC (anti-bacterial activity) for CCCC[C@H](CN(O)C=O)C(=O)N1CC2(CC2)C[C@H]1C(=O)Nc1cc(C)on1 [Example 21] , system: methicillin-sensitive Staphylococcus aureus (MSSA).
Result: -0.60

Q: Specify the recorded log10 of MIC (anti-bacterial activity) for O=CN(O)C[C@@H](CC1CCCC1)C(=O)N1CC2(CC2)C[C@H]1C(=O)Nc1ccc(F)cn1 [Example 28] , system: methicillin-sensitive Staphylococcus aureus (MSSA).
Result: -0.90

Q: Specify the recorded log10 of MIC (anti-bacterial activity) for O=CN(O)C[C@@H](CC1CCCC1)C(=O)N1CC2(CC2)C[C@H]1C(=O)Nc1ncco1 [Example 36] , system: methicillin-sensitive Staphylococcus aureus (MSSA).
Result: 0.90

Q: Specify the recorded log10 of MIC (anti-bacterial activity) for O=CN(O)C[C@@H](CC1CCCC1)C(=O)N1CC2(CC2)C[C@H]1C(=O)Nc1ccncn1 [Example 27] , system: methicillin-sensitive Staphylococcus aureus (MSSA).
Result: -0.90

Q: Specify the recorded log10 of MIC (anti-bacterial activity) for CCCC[C@H](CN(O)C=O)C(=O)N1CC2(CC2)C[C@H]1C(=O)Nc1ccc(N2CCOCC2)cc1 [Example 14] , system: methicillin-sensitive Staphylococcus aureus (MSSA).
Result: 0.00

Q: Specify the recorded log10 of MIC (anti-bacterial activity) for Cc1cnc(NC(=O)[C@@H]2CC3(CC3)CN2C(=O)[C@H](CC2CCCC2)CN(O)C=O)s1 [Example 29] , system: methicillin-sensitive Staphylococcus aureus (MSSA).
Result: -0.90

Q: Specify the recorded log10 of MIC (anti-bacterial activity) for O=CN(O)C[C@@H](CC1CCCC1)C(=O)N1CC2(CC2)C[C@H]1C(=O)Nc1cc[nH]n1 [Example 31] , system: methicillin-sensitive Staphylococcus aureus (MSSA).
Result: 0.30

Q: Specify the recorded log10 of MIC (anti-bacterial activity) for CC(C)(C)c1cc(NC(=O)[C@@H]2CC3(CC3)CN2C(=O)[C@H](CC2CCCC2)CN(O)C=O)no1 [Example 38] , system: methicillin-sensitive Staphylococcus aureus (MSSA).
Result: -0.60

Q: Specify the recorded log10 of MIC (anti-bacterial activity) for O=CN(O)C[C@@H](CC1CCCC1)C(=O)N1CC2(CC2)C[C@H]1C(=O)Nc1ncccc1F [Example 30] , system: methicillin-sensitive Staphylococcus aureus (MSSA).
Result: -0.30

Q: Specify the recorded log10 of MIC (anti-bacterial activity) for O=CN(O)C[C@@H](CC1CCCC1)C(=O)N1CC2(CC2)C[C@H]1C(=O)NC1CC1 [Example 32] , system: methicillin-sensitive Staphylococcus aureus (MSSA).
Result: 0.00

Q: Specify the recorded log10 of MIC (anti-bacterial activity) for Cc1csc(NC(=O)[C@@H]2CC3(CC3)CN2C(=O)[C@H](CC2CCCC2)CN(O)C=O)n1 [Example 33] , system: methicillin-sensitive Staphylococcus aureus (MSSA).
Result: -1.52

Q: Specify the recorded log10 of MIC (anti-bacterial activity) for CCCC[C@H](CN(O)C=O)C(=O)N1CC2(CC2)C[C@H]1C(=O)Nc1nc(C)cs1 [Example 19] , system: methicillin-sensitive Staphylococcus aureus (MSSA).
Result: -0.90

Q: Specify the recorded log10 of MIC (anti-bacterial activity) for O=CN(O)C[C@@H](CC1CCCC1)C(=O)N1CC2(CC2)C[C@H]1C(=O)Nc1ccno1 [Example 37] , system: methicillin-sensitive Staphylococcus aureus (MSSA).
Result: 0.00

* * *

# Tested on: methicillin-sensitive Staphylococcus aureus (MSSA)
# experimentNotes: MIC, two-fold agar dilution (CLSI), clinical isolates
# Type: cell-based
# statedConditions: strain MSSA 14-3
Assignment: determine reported MIC (anti-bacterial activity) for the given molecules.
Field format: number, assumed µg/mL, no unit text.

Q: Find the measured MIC (anti-bacterial activity) of `CCCC[C@H](CN(O)C=O)C(=O)N1CC2(CC2)C[C@H]1C(=O)Nc1cccc(Nc2ncccn2)c1` and report it.
Result: 0.25

Q: Find the measured MIC (anti-bacterial activity) of `CCCC[C@H](CN(O)C=O)C(=O)N1CC2(CC2)C[C@H]1C(=O)Nc1nccc(-c2cccnc2)n1` and report it.
Result: 0.5

Q: Find the measured MIC (anti-bacterial activity) of `CCCC[C@H](CN(O)C=O)C(=O)N1CC2(CC2)C[C@H]1c1nc2ccccc2[nH]1` and report it.
Result: 2

* * *

Assignment: determine reported Anti-bacterial activity (MIC), strain ECO+ 15-4 for the given compounds.
# Test system: Escherichia coli (including ESBLs, non-ESBLs)
# experimentNotes: MIC, two-fold agar dilution (CLSI), clinical isolates
# Type: cell-based
# statedConditions: clinical isolate ECO+ 15-4
Field format: number, assumed µg/mL, no unit text.

Q: Find the measured Anti-bacterial activity (MIC), strain ECO+ 15-4 of `CCCC[C@H](CC(=O)NO)C(=O)N1CC2(CC2)C[C@H]1C(=O)Nc1nc(C)cs1` and report it.
Result: 32

Q: Find the measured Anti-bacterial activity (MIC), strain ECO+ 15-4 of `CCCC[C@H](CC(=O)NO)C(=O)N1CC2(CC2)C[C@H]1C(=O)Nc1ccc(F)cn1` and report it.
Result: 1

Q: Find the measured Anti-bacterial activity (MIC), strain ECO+ 15-4 of `O=CN(O)C[C@@H](CC1CCCC1)C(=O)N1CC2(CC2)C[C@H]1C(=O)Nc1nncs1` and report it.
Result: 32

Q: Find the measured Anti-bacterial activity (MIC), strain ECO+ 15-4 of `O=C(C[C@@H](CC1CCCC1)C(=O)N1CC2(CC2)C[C@H]1C(=O)Nc1ncccc1F)NO` and report it.
Result: 32

* * *

# Test system: Moraxella catarrhalis (BCA)
# experimentNotes: MIC, two-fold agar dilution (CLSI), clinical isolates
# Type: cell-based
# statedConditions: strain BCA 14-1
Assignment: determine reported MIC (anti-bacterial activity) for the given compounds.
Field format: number, assumed µg/mL, no unit text.

Q: Find the measured MIC (anti-bacterial activity) of `O=CN(O)C[C@@H](CC1CCCC1)C(=O)N1CC2(CC2)C[C@H]1C(=O)Nc1ccncn1` and report it.
Result: 2

Q: Find the measured MIC (anti-bacterial activity) of `O=CN(O)C[C@@H](CC1CCCC1)C(=O)N1CC2(CC2)C[C@H]1C(=O)Nc1ccno1` and report it.
Result: 2

Q: Find the measured MIC (anti-bacterial activity) of `O=CN(O)C[C@@H](CC1CCCC1)C(=O)N1CC2(CC2)C[C@H]1C(=O)Nc1cnccn1` and report it.
Result: 0.5

Q: Find the measured MIC (anti-bacterial activity) of `CCCC[C@H](CN(O)C=O)C(=O)N1CC2(CC2)C[C@H]1C(=O)Nc1nccs1` and report it.
Result: 0.5

Q: Find the measured MIC (anti-bacterial activity) of `CCCC[C@H](CN(O)C=O)C(=O)N1CC2(CC2)C[C@H]1c1nc2ccccc2n1CCN(C)C` and report it.
Result: 32

Q: Find the measured MIC (anti-bacterial activity) of `CCCC[C@H](CN(O)C=O)C(=O)N1CC2(CC2)C[C@H]1C(=O)Nc1cc(C)on1` and report it.
Result: 0.5

Q: Find the measured MIC (anti-bacterial activity) of `O=CN(O)C[C@@H](CC1CCCC1)C(=O)N1CC2(CC2)C[C@H]1C(=O)Nc1ncco1` and report it.
Result: 16

Q: Find the measured MIC (anti-bacterial activity) of `O=CN(O)C[C@@H](CC1CCCC1)C(=O)N1CC2(CC2)C[C@H]1C(=O)Nc1ncccc1F` and report it.
Result: 2

Q: Find the measured MIC (anti-bacterial activity) of `CCCC[C@H](CN(O)C=O)C(=O)N1CC2(CC2)C[C@H]1C(=O)NC1CC1` and report it.
Result: 16

Q: Find the measured MIC (anti-bacterial activity) of `O=CN(O)C[C@@H](CC1CCCC1)C(=O)N1CC2(CC2)C[C@H]1C(=O)NC1CC1` and report it.
Result: 4

Q: Find the measured MIC (anti-bacterial activity) of `CCCC[C@H](CN(O)C=O)C(=O)N1CC2(CC2)C[C@H]1C(=O)Nc1nncs1` and report it.
Result: 8

Q: Find the measured MIC (anti-bacterial activity) of `O=CN(O)C[C@@H](CC1CCCC1)C(=O)N1CC2(CC2)C[C@H]1C(=O)N1CCS(=O)(=O)CC1` and report it.
Result: 32

Q: Find the measured MIC (anti-bacterial activity) of `CCCC[C@H](CN(O)C=O)C(=O)N1CC2(CC2)C[C@H]1C(=O)Nc1ccno1` and report it.
Result: 4

Q: Find the measured MIC (anti-bacterial activity) of `CCCC[C@H](CN(O)C=O)C(=O)N1CC2(CC2)C[C@H]1C(=O)Nc1ccncn1` and report it.
Result: 0.5

Q: Find the measured MIC (anti-bacterial activity) of `CCCC[C@H](CN(O)C=O)C(=O)N1CC2(CC2)C[C@H]1C(=O)Nc1nc(C)cs1` and report it.
Result: 1

Q: Find the measured MIC (anti-bacterial activity) of `COC(=O)c1sccc1NC(=O)[C@@H]1CC2(CC2)CN1C(=O)[C@H](CC1CCCC1)CN(O)C=O` and report it.
Result: 4

Q: Find the measured MIC (anti-bacterial activity) of `O=CN(O)C[C@@H](CC1CCCC1)C(=O)N1CC2(CC2)C[C@H]1C(=O)Nc1ccc(N2CCOCC2)cc1` and report it.
Result: 0.5

Q: Find the measured MIC (anti-bacterial activity) of `Cc1cc(NC(=O)[C@@H]2CC3(CC3)CN2C(=O)[C@H](CC2CCCC2)CN(O)C=O)no1` and report it.
Result: 1

Where these numbers come from: patent US10738028B2
